- PROCEDURE SUMMARY: Hydrate screen in IPA/water system: solubility of slurried Form I
- Assay type: physicochemical
- MEASUREMENT CONTEXT: isopropyl alcohol/water mixture, organic solvent or mixture, thermodynamic from solid, IPA/water aw 0.2, room temperature; solid by XRPD Form I & II; read-out: 15-16 Day Solubility
- Protocol: About 50 mg of Form I of (S)-2-(1-(9H-purin-6-ylamino)propyl)-5-fluoro-3-phenylquinazolin-4(3H)-one was slurried in either (A) a 1-mL mixture of a isopropyl alcohol (IPA) and water, or (B) a 1-mL mixture of ethanol and water, for several days at room temperature. As used herein, water activity (aw) in liquid phase corresponds to relative humidity in the atmosphere. For example, 0.5 aw is equivalent to 50% relative humidity.
MEASURED ATTRIBUTE: solubility (mg/mL)
Lab book: enter the figure in mg/mL, no units written.

Record request: solubility value, item CC[C@H](Nc1ncnc2[nH]cnc12)c1nc2cccc(F)c2c(=O)n1-c1ccccc1 [Form I]
20

====

- PROCEDURE SUMMARY: Hydrate screen in IPA/water system: solubility of slurried Form I
- Type: physicochemical
- MEASUREMENT CONTEXT: isopropyl alcohol/water mixture, organic solvent or mixture, thermodynamic from solid, IPA/water aw 0.4, room temperature; solid by XRPD Form I & II
MEASURED ATTRIBUTE: solubility at 48 h (mg/mL)
Kindly answer with a numeric value in mg/mL, unit omitted.

Give the measured solubility at 48 h of CC[C@H](Nc1ncnc2[nH]cnc12)c1nc2cccc(F)c2c(=O)n1-c1ccccc1 [Form I] .
18

====

- PROCEDURE SUMMARY: Hydrate screen in IPA/water system: solubility of slurried Form I
- Type: physicochemical
- MEASUREMENT CONTEXT: isopropyl alcohol/water mixture, organic solvent or mixture, thermodynamic from solid, IPA/water aw 0.7, room temperature; solid by XRPD Form III
MEASURED ATTRIBUTE: solubility at 48 h (µg/mL)
Use µg/mL as the unit, but write only the number.

# solubility at 48 h lookup, item CC[C@H](Nc1ncnc2[nH]cnc12)c1nc2cccc(F)c2c(=O)n1-c1ccccc1 [Form I]
9800

====

- PROCEDURE SUMMARY: Hydrate screen in IPA/water system: solubility of slurried Form I
- Assay type: physicochemical
- MEASUREMENT CONTEXT: isopropyl alcohol/water mixture, organic solvent or mixture, thermodynamic from solid, IPA/water aw 0.3, room temperature; solid by XRPD Form I & II
MEASURED ATTRIBUTE: solubility at 48 h (mg/mL)
State the answer as a number, implicitly in mg/mL.

Which solubility at 48 h value belongs to CC[C@H](Nc1ncnc2[nH]cnc12)c1nc2cccc(F)c2c(=O)n1-c1ccccc1 [Form I] ?
19

====

- PROCEDURE SUMMARY: Hydrate screen in IPA/water system: solubility of slurried Form I
- Format: physicochemical
- MEASUREMENT CONTEXT: isopropyl alcohol/water mixture, organic solvent or mixture, thermodynamic from solid, IPA/water aw 0.5, room temperature; solid by XRPD Form I & II; read-out: 15-16 Day Solubility
MEASURED ATTRIBUTE: solubility

Quick one: solubility of CC[C@H](Nc1ncnc2[nH]cnc12)c1nc2cccc(F)c2c(=O)n1-c1ccccc1 [Form I] ?
20 mg/mL

These measurements were taken from patent US9469643B2.
